Origin of measurements: patent US20210284668A1

system: E. faecium ATCC19434T; test: MIC by microdilution, E. faecium ATCC19434T; format: cell-based, Enterococcus faecium; parameters: unit not given here; settings: E. faecium ATCC19434T (wild-type), in duplicate
Quantity: Minimal Inhibitory Concentration (MIC)
Form rule: numeric answer, no unit written next to it.

- Molecule: "CC[P+](CC)(CC)[Au-][c]1nn[nH]c1-c1cccc(C(=O)NC(C(=O)O)c2ccccc2)c1 (centres unmarked)"
  Result value: 0.25
- Molecule: "CC[P+](CC)(CC)[Au-][c]1nn[nH]c1CC(N)C(=O)O (centres unmarked)"
  Result value: 0.5
- Molecule: "CC[P+](CC)(CC)[Au-][c]1nn[nH]c1CNC(=O)NC(C(=O)O)c1ccccc1 (centres unmarked)"
  Result value: 0.25
- Molecule: "CC[P+](CC)(CC)[Au-][c]1nn[nH]c1CCC(=O)NC(C(=O)O)c1ccccc1 (centres unmarked)"
  Result value: 0.25
- Molecule: "CC[P+](CC)(CC)[Au-][c]1nn[nH]c1COC(=O)N[C@H](Cc1ccccc1)C(=O)O"
  Result value: 1
- Molecule: "CC[P+](CC)(CC)[Au-][c]1nn[nH]c1CNC(=O)NC(C(=O)NC1C(=O)N2C1SC(C)(C)C2C(=O)O)c1ccccc1 (centres unmarked)"
  Result value: 0.5

q: // returns reported Minimal Inhibitory Concentration (MIC) for input CC[P+](CC)(CC)[Au-][c]1nn[nH]c1-c1ccc(C(=O)O)cn1
a: 0.125

q: // returns reported Minimal Inhibitory Concentration (MIC) for input CC[P+](CC)(CC)[Au-][c]1nn[nH]c1CNC(=O)CCCC[C@@H]1SC[C@@H]2NC(=O)N[C@@H]21
a: 0.25

q: // returns reported Minimal Inhibitory Concentration (MIC) for input CC[P+](CC)(CC)[Au-][c]1nn[nH]c1-c1ccc(C(=O)NC(C(=O)NC2C(=O)N3C2SC(C)(C)C3C(=O)O)c2ccccc2)cc1 (centres unmarked)
a: 1

q: // returns reported Minimal Inhibitory Concentration (MIC) for input CC[P+](CC)(CC)[Au-][c]1nn[nH]c1COC(=O)N[C@H](Cc1c[nH]c2ccccc12)C(=O)O
a: 0.5

q: // returns reported Minimal Inhibitory Concentration (MIC) for input CC[P+](CC)(CC)[Au-][c]1nn[nH]c1COC(=O)NCC(=O)O
a: 0.25

###

test system: E. faecalis UCN41; assay: MIC by microdilution, E. faecalis UCN41; type: cell-based, Enterococcus faecalis; parameters: unit not given here; conditions: E. faecalis UCN41 (VanA positive, glycopeptide resistant), in duplicate
Could you label it MET if measured Minimal Inhibitory Concentration (MIC) is 0.5 or higher, and NOT MET otherwise?

Some solved entries appear below for comparison.
- Molecule: "CC[P+](CC)(CC)[Au-][c]1nn[nH]c1-c1cn[nH]c1"
  Assigned class: "NOT MET"
- Molecule: "C[C@@H]1COc2c(N3CCN(C)CC3)c(F)cc3c(=O)c(C(=O)O)cn1c23 [TMB47, Ofloxacin, reference compound]"
  Assigned class: "MET"

q: Determine whether this molecule has Minimal Inhibitory Concentration (MIC) no lower than 0.5: CC[P+](CC)(CC)[Au-][c]1nn[nH]c1CCC(=O)N[C@H](CO)C(=O)O
a: NOT MET

q: Determine whether this molecule has Minimal Inhibitory Concentration (MIC) no lower than 0.5: CC[P+](CC)(CC)[Au-][c]1nn[nH]c1CNc1c(F)cc2c(=O)c(C(=O)O)cn3c2c1OCC3C (stereo not drawn)
a: MET

q: Determine whether this molecule has Minimal Inhibitory Concentration (MIC) no lower than 0.5: CC[P+](CC)(CC)[Au-][c]1nn[nH]c1CCS(N)(=O)=O
a: NOT MET

q: Determine whether this molecule has Minimal Inhibitory Concentration (MIC) no lower than 0.5: CC[P+](CC)(CC)[Au-][c]1nn[nH]c1CNC(=O)NC(C(=O)O)c1ccccc1 (stereo not drawn)
a: NOT MET

q: Determine whether this molecule has Minimal Inhibitory Concentration (MIC) no lower than 0.5: CC[P+](CC)(CC)[Au-][c]1nn[nH]c1-c1cccc(C(=O)NC(C(=O)O)c2ccccc2)c1 (stereo not drawn)
a: NOT MET

q: Determine whether this molecule has Minimal Inhibitory Concentration (MIC) no lower than 0.5: CC[P+](CC)(CC)[Au-][c]1nn[nH]c1COC(=O)N[C@@H](CCCNC(=N)N[N+](=O)[O-])C(=O)O
a: MET

q: Determine whether this molecule has Minimal Inhibitory Concentration (MIC) no lower than 0.5: CC[P+](CC)(CC)[Au-][c]1nn[nH]c1COC(=O)N[C@H](CC(=O)O)C(=O)O
a: NOT MET

q: Determine whether this molecule has Minimal Inhibitory Concentration (MIC) no lower than 0.5: CC[P+](CC)(CC)[Au-][c]1nn[nH]c1COC(=O)NC(C(=O)O)c1ccc(O)cc1 (stereo not drawn)
a: NOT MET

q: Determine whether this molecule has Minimal Inhibitory Concentration (MIC) no lower than 0.5: CC[P+](CC)(CC)[Au-][c]1nn[nH]c1CN1C(=O)NC2CSC(CCCCC(=O)O)C21 (stereo not drawn)
a: MET

q: Determine whether this molecule has Minimal Inhibitory Concentration (MIC) no lower than 0.5: CC1(C)S[C@@H]2[C@H](NC(=O)[C@H](NC(=O)OCc3cnnn3Cc3ccccc3)c3ccccc3)C(=O)N2[C@H]1C(=O)O
a: MET

###

tested on: S. aureus ATCC700699; assay: MIC by microdilution, S. aureus ATCC700699; type: cell-based, Staphylococcus aureus; set-up: unit not given here; settings: S. aureus ATCC700699 (MecA positive, glycopeptide resistant), in duplicate
Recorded measurements of Minimal Inhibitory Concentration (MIC), one per entry
Form rule: numeric answer, no unit written next to it.

Reference set, count: 3
- Compound: "CC[P+](CC)(CC)[Au-][c]1nn[nH]c1CN1CCN(C)CC1 [TMB33]"
  Result value: 0.25
- Compound: "CC[P+](CC)(CC)[Au-][c]1nn[nH]c1-c1cccc(C(=O)NC(C(=O)O)c2ccccc2)c1 (stereo not drawn) [TMB20]"
  Result value: 0.125
- Compound: "CC[P+](CC)(CC)[Au-][c]1nn[nH]c1CCS(N)(=O)=O [TMB36]"
  Result value: 0.125

q: // returns reported Minimal Inhibitory Concentration (MIC) for input CC[P+](CC)(CC)[Au-][c]1nn[nH]c1COC(=O)N[C@H](Cc1ccccc1)C(=O)O [TMB27]
a: 0.25

q: // returns reported Minimal Inhibitory Concentration (MIC) for input CC[P+](CC)(CC)[Au-][c]1nn[nH]c1COC(=O)NC(C(=O)OC(C)(C)C)c1ccccc1 (stereo not drawn) [TMB15]
a: 0.5

###

tested on: S. aureus ATCC700699; test: MIC by microdilution, S. aureus ATCC700699; format: cell-based, Staphylococcus aureus; set-up: unit not given here; details: S. aureus ATCC700699 (MecA positive, glycopeptide resistant), in duplicate
Quantity: Minimal Inhibitory Concentration (MIC)

Reference set, count: 2
- Molecule: "CC1(C)S[C@@H]2[C@H](NC(=O)[C@H](NC(=O)CCc3cnnn3Cc3ccccc3)c3ccccc3)C(=O)N2[C@H]1C(=O)O"
  Quantity: "Minimal Inhibitory Concentration (MIC)"
  Result value: ">8"
- Molecule: "CC[P+](CC)(CC)[Au-][c]1nn[nH]c1CCCO"
  Quantity: "Minimal Inhibitory Concentration (MIC)"
  Result value: "≤0.06"

q: // returns reported Minimal Inhibitory Concentration (MIC) for input CC1(C)S[C@@H]2[C@H](NC(=O)[C@H](NC(=O)OCc3cnnn3Cc3ccccc3)c3ccccc3)C(=O)N2[C@H]1C(=O)O
a: >8

q: // returns reported Minimal Inhibitory Concentration (MIC) for input CC1(C)S[C@@H]2[C@H](NC(=O)[C@H](NC(=O)CCc3cn(Cc4ccccc4)nn3)c3ccccc3)C(=O)N2[C@H]1C(=O)O
a: >8

q: // returns reported Minimal Inhibitory Concentration (MIC) for input CC(=O)OC[C@H]1O[C@@H]([S-])[C@H](OC(C)=O)[C@@H](OC(C)=O)[C@@H]1OC(C)=O.CCP(CC)CC.[Au+] [Auranofin, reference compound]
a: ≤0.06

q: // returns reported Minimal Inhibitory Concentration (MIC) for input O=C(N[C@@H](C(=O)O)c1ccccc1)OCc1cnn[nH]1
a: >8

q: // returns reported Minimal Inhibitory Concentration (MIC) for input O=C(CCc1cnn[nH]1)N[C@@H](C(=O)O)c1ccccc1
a: >8

###

Recorded measurements of Minimal Inhibitory Concentration (MIC), one per entry
tested on: E. faecalis UCN41; assay: MIC by microdilution, E. faecalis UCN41; type: cell-based, Enterococcus faecalis; design: unit not given here; conditions: E. faecalis UCN41 (VanA positive, glycopeptide resistant), in duplicate
Form rule: numeric answer, no unit written next to it.

- Compound: "CC[P+](CC)(CC)[Au-][c]1nn[nH]c1COC(=O)N[C@H](Cc1c[nH]c2ccccc12)C(=O)O"
  Minimal Inhibitory Concentration (MIC): 0.5
- Compound: "CC[P+](CC)(CC)[Au-][c]1nn[nH]c1-c1c(C)noc1C"
  Minimal Inhibitory Concentration (MIC): 0.25
- Compound: "CC(=O)O.CC[P+](CC)(CC)[Au-][c]1nn[nH]c1CCN"
  Minimal Inhibitory Concentration (MIC): 0.5
- Compound: "CC[P+](CC)(CC)[Au-][c]1nn[nH]c1COC(=O)N1CCC[C@@H]1C(=O)O"
  Minimal Inhibitory Concentration (MIC): 0.25
- Compound: "CC[P+](CC)(CC)[Au-][c]1nn[nH]c1CCC(=O)NC(C(=O)O)c1ccccc1 (stereo not drawn)"
  Minimal Inhibitory Concentration (MIC): 0.25

q: // returns reported Minimal Inhibitory Concentration (MIC) for input CC[P+](CC)(CC)[Au-][c]1nn[nH]c1CCCO
a: 0.125

q: // returns reported Minimal Inhibitory Concentration (MIC) for input CC[P+](CC)(CC)[Au-][c]1nn[nH]c1CN1CCOCC1
a: 0.25
